Taken from paper PMC10818380.

# System: VA13
# MEASUREMENT_DESCRIPTION: cells
# Assay type: cell-based, human
# MEASUREMENT_CONDITIONS: 72 h
# Method: The cytotoxicity of the substances under study was tested using the MTT (3-(4,5-dimethylthiazol-2-yl)-2,5-diphenyltetrazolium bromide) assay with some modifications. The detailed procedure for the MTT assay is given in the Supplementary Materials (Section S5). […] CO2. […] The absorbance was measured using the VICTOR X5 Multilabel Plate Reader (PerkinElmer, Wa l th a m, MA, USA) at a wavelength of 565 nm (in order to measure formazan concentration). […]
ENDPOINT_LABEL: IC50

I have this substance here, H-RRIRPRPPYL-OH [Compound 2, Bac(1–10, R/Y)] , and I need its recorded IC50.
> 50 µM
